- ASSAYED SYSTEM: DNA polymerase eta (Homo sapiens) (UniProt Q9Y253)
- Sequence (Q9Y253 whole entry, looked up): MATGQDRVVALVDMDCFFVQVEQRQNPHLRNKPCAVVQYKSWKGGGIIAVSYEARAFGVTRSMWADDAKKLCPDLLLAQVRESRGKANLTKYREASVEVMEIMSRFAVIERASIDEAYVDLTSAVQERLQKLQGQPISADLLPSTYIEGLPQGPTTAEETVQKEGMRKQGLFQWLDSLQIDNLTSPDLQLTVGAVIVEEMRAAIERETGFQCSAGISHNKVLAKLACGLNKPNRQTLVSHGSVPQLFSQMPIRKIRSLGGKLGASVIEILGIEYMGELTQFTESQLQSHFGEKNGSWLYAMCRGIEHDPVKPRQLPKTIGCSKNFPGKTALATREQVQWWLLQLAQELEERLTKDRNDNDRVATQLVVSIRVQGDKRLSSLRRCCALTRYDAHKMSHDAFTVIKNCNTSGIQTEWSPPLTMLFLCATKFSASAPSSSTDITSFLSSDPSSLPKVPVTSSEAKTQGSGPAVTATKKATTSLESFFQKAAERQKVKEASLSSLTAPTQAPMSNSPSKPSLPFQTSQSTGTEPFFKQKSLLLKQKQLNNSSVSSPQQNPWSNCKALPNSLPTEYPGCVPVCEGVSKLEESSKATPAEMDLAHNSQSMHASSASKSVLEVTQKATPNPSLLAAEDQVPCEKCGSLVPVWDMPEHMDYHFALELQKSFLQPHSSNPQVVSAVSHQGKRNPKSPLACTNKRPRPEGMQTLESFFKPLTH
- TEST DETAILS: qHTS for Inhibitors of Polymerase Eta
- REPORTED CONDITIONS: recombinant Pol eta, fluorescent DNA replication assay; series mostly up to 114 µM
Hit rate of the full screen: of about 390,000 compounds, about 4,700 (1.2%) were called active. About 4% were inconclusive and are not listed. Calls follow the shape of the dose curve; as a rule, active = well fitted inhibition curve with a large enough effect; inconclusive = small, poorly fitted or top-dose-only effect, or another doubt; inactive = no such curve, though single readings can be large or run the other way. The sample holds actives, similar compounds and a random draw of the others, so the mix is not that of the screen.
Pick from active, inactive when you respond.

Use the examples below as a reference point.
CCOC(=O)c1ccc(NC(=O)Cn2c(=O)cc(C)c3c(C)nn(-c4cccc(F)c4)c32)cc1 :: inactive
O=C1C(Cl)=C(Oc2ccccc2)C(=O)c2ccccc21 :: active

For CCOc1ccc(NC(=O)CCC(=O)N2CC(C)Oc3ccc(C)cc32)cc1 (stereo not given) , which call appears in the assay record?
inactive

Kindly provide the recorded test outcome for the following compound: "COc1ccc(Nc2ncc(C(=O)Nc3cc(C)ccc3OC)c3ccccc23)cc1"
inactive

Could you kindly confirm the outcome this assay logged for "CCOc1ccccc1C(=O)Nc1ccc2c(c1)N(C)C(=O)c1ccccc1S2" ?
inactive

I'd appreciate the recorded outcome for COc1ccccc1N1CC(C(=O)Nc2nnc(SCC(=O)NCC3CCCO3)s2)CC1=O (stereo not given) from this test.
inactive

---

- ASSAYED SYSTEM: DNA polymerase eta (Homo sapiens) (UniProt Q9Y253)
- TEST DETAILS: qHTS for Inhibitors of Polymerase Eta; also: potency is read from the fitted curve at half-maximal effect
- REPORTED CONDITIONS: recombinant Pol eta, fluorescent DNA replication assay; series mostly up to 114 µM
About 4,700 (1.2%) of roughly 390,000 compounds were called active. Not shown: some 4% with an inconclusive outcome. Shown is part of a subset that was picked to be rich in actives.
PROPERTY LABEL: Potency

Below, each entry is followed by its recorded Potency result.
Cc1cc(C)c2nc(-c3ccco3)cc(C(=O)O)c2c1 :: 22.4 µM (active)
CC(=O)c1ccc(N2CCN(C3C(=O)c4ccccc4N3C(C)=O)CC2)cc1 (stereo unspecified) :: inactive
CN=C1S/C(=C\c2c(OC)cc(OC)cc2OC)C(=O)N1C :: inactive
O=C(O)c1cccc(N=NN2CCCCCC2)c1 :: inactive
Cc1cccc(NC(=O)CSc2nc(-c3ccco3)cc(C(F)(F)F)n2)c1C :: inactive

Quick check: Potency of "CN1C(=O)/C(=C/c2ccco2)SC1=Nc1cccc(C(=O)O)c1" ?
35.5 µM (active)

---

- ASSAYED SYSTEM: DNA polymerase eta (Homo sapiens) (UniProt Q9Y253)
- TEST DETAILS: qHTS for Inhibitors of Polymerase Eta; also: potency is read from the fitted curve at half-maximal effect
- REPORTED CONDITIONS: recombinant Pol eta, fluorescent DNA replication assay; series mostly up to 114 µM
Hit rate of the full screen: of about 390,000 compounds, about 4,700 (1.2%) were called active. About 4% were inconclusive and are not listed. This excerpt belongs to a sample that is enriched for actives.
PROPERTY LABEL: Potency

Please review the following examples before continuing.
Cc1ccc(SCC(=O)NC(=O)NCc2ccco2)c(C)c1 :: 14.1 µM (active)
CCOC(=O)c1ccc(CSc2nnc3cc(C)c4ccccc4n23)cc1 :: inactive
COC(=O)c1cccc(NC(=O)CSc2nc(C)cc(=O)[nH]2)c1 :: 20 µM (active)
O=C(c1ccc(CS(=O)(=O)c2ccccc2)o1)N1CCN(c2ccccc2)CC1 :: 50.1 µM (active)
Cc1cc(C)c(C(=O)CSc2nc(C)cc(=O)[nH]2)c(C)c1 :: inactive
CCCCC12CN3CC(C)(CN(C1)C3c1ccc(O)c(OC)c1)C2=O (stereo unspecified) :: inactive

Reported Potency, compound "Cc1ccc(Cl)cc1N1CCN(C(=O)c2cnc3c(-c4ccc(F)cc4)c(C)nn3c2C)CC1" : ____
inactive

What Potency value was documented for this compound, "O=C(NCCc1ccc(Cl)cc1)c1ccc2c(c1)N(Cc1ccc(F)cc1)C(=O)CS2" ?
inactive

Returns the measured Potency for the input compound. Input: "COc1cc(NC(=O)COC(=O)c2ccc([N+](=O)[O-])s2)cc(OC)c1OC"
50.1 µM (active)

I'd like to know its Potency. The compound in question is "CC(=O)Nc1ccc(S(=O)(=O)Nc2ccc(-c3ccc4nnc(C)n4n3)cc2)cc1"
inactive

Find the recorded Potency belonging to "COc1ccc(C(=O)Nc2nc(-c3ccc(OC)cc3)c(-c3ccc([N+](=O)[O-])cc3)s2)cc1" and report it.
79.4 µM (active)

Which Potency value is on record for "O=C(CCS(=O)(=O)c1ccc2c(c1)NC(=O)CO2)Nc1cccc(C(F)(F)F)c1" ?
inactive

Give the measured Potency of "Cc1ccccc1-c1nc(SCC(=O)N(C)c2ccccc2)c2c(=O)n(C)c(=O)n(C)c2n1" .
inactive

// query Potency value for entry O=C(c1ccc(CS(=O)Cc2ccccc2Cl)o1)N1CCN(c2ccccc2)CC1 (stereo unspecified)
inactive

Suppose we examine the compound "O=C(Nc1ccc(-c2ccc3nncn3n2)cc1)C1CCCCC1" ; what Potency value has been reported?
inactive
